Reference for the values: patent US7786141B2

Target: M1 muscarinic receptor (Homo sapiens)
Construct: expressed in transfected cells; host or cells: CHO (M1-CHO)
Sequence (P11229 whole entry): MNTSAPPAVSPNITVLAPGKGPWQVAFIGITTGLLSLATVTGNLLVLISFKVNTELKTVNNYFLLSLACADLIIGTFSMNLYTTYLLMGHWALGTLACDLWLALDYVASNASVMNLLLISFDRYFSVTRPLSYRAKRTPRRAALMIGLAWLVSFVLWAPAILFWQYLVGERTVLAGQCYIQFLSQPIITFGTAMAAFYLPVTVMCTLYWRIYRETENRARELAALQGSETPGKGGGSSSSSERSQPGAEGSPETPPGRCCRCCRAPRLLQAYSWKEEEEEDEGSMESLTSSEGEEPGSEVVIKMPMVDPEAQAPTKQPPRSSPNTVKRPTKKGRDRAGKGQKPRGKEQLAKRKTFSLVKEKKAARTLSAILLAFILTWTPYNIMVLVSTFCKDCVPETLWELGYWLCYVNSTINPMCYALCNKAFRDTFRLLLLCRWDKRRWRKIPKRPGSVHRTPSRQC
Assay remarks: Functional mobilization of intracellular calcium (FLIPR) in M1-CHO cells
Format: cell-based
Condition info: M1 receptor, calcium mobilization; read-out: M1 Efficacy
Observable: Emax

Take a look at these entries with their results.
Compound | Emax
COc1ccc(OC(=O)N2C3CCC2CC(N2CCC4(CC2)COc2ccc(F)cc24)C3)cc1 (centres unmarked) [compound 100] | 65 to 85%
CCOC(=O)N1CCC(N2CCC3(CC2)CN(C(C)=O)c2ccc(-c4ccccc4C#N)cc23)CC1 [compound 277] | 65 to 85%
CC(=O)N[C@H]1CC2(CCN(C3CCC(c4ccccc4)CC3)CC2)c2ccccc21 (some centres unmarked) [compound 273] | > 85%

Kindly give each listed record's Emax.
1. CCOC(=O)N1C2CCC1CC(N1CCC3(CC1)CN(C(=O)N(C)C)c1ccc(F)cc13)C2 (centres unmarked) [compound 362]
2. CC(C)OC(=O)N1C2CCC1CC(N1CCC3(CC1)C(=O)Nc1ccccc13)C2 (centres unmarked) [compound 139]
3. CCOC(=O)N1CCC(N2CCC3(CC2)CN(C(=O)OC)c2ccc(F)cc23)CC1 [compound 173]
4. COCCOC(=O)N1C2CCC1CC(N1CCC3(CC1)CN(C(C)=O)c1ccc(F)cc13)C2 (centres unmarked) [compound 76]
5. CCOC(=O)N1CCC(N2CCC3(CC2)CN(C(C)=O)c2ccc(F)cc23)C1 (centres unmarked) [compound 113]

## Output
["65 to 85%", "> 85%", "65 to 85%", "65 to 85%", "65 to 85%"]

====

Target: M4 muscarinic receptor (Homo sapiens)
Construct: expressed in transfected cells; host or cells: CHO (M4-CHO)
Sequence (P08173 1-479): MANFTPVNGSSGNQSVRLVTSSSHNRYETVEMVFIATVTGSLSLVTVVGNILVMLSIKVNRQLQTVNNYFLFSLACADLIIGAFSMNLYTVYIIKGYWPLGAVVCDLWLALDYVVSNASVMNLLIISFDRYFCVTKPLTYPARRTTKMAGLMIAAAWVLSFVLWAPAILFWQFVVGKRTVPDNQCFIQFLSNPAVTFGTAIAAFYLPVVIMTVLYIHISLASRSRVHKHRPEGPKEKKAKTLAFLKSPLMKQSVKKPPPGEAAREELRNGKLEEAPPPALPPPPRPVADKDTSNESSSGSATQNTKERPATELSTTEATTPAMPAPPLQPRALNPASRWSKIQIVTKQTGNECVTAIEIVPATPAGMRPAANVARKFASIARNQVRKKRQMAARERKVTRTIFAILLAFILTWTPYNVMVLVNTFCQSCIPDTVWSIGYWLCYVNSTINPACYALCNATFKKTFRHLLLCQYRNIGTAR
Assay remarks: Functional mobilization of intracellular calcium (FLIPR) in M4-CHO cells
Type: cell-based
Condition info: Table 4; 100% efficacy is the maximum response obtained with the Carbachol control
Assign Emax to each entry below.

Take a look at these entries with their results.
Molecule | Observable | Recorded measurement
CN(C)C(=O)N1CC2(CCN(C3CCN(c4ncnc5ccsc45)CC3)CC2)c2cc(F)ccc21 [compound 965] | Emax | 25 to 100%
COc1cc2c(cc1OC)C1(CCN([C@H]3CC4CC[C@@H]3C4)CC1)C[C@@H]2NC(C)=O [compound 1002] | Emax | < 25%
CC(=O)N1CC2(CCN(C3CCN(C(=O)OCC(C)(C)C)CC3)CC2)c2ccccc21 [compound 496] | Emax | < 25%

Kindly give each listed record's Emax.
1. CCOC(=O)N1CCC(CN2CCC3(CC2)CN(C(C)=O)c2c(C)cc(C)cc23)CC1 [compound 869]
2. CC(=O)N[C@H]1CC2(CCN(Cc3ccoc3)CC2)c2ccccc21 [compound 530]
3. CC#CCOC(=O)N1CC[C@@H](CN2CCC3(CC2)CN(C(C)=O)c2cccc(C)c23)C1 [compound 929]
4. CN(C)C(=O)N1CC2(CCN(C3CCN(C(=O)C4COc5ccccc5O4)CC3)CC2)c2cc(F)ccc21 (stereo not shown) [compound 781]

## Output
1. 25 to 100%
2. < 25%
3. 25 to 100%
4. < 25%
